Taken from ChEMBL document CHEMBL1138795.

- target_system: UniProt:Q99808
- Sequence (Q99808 whole entry): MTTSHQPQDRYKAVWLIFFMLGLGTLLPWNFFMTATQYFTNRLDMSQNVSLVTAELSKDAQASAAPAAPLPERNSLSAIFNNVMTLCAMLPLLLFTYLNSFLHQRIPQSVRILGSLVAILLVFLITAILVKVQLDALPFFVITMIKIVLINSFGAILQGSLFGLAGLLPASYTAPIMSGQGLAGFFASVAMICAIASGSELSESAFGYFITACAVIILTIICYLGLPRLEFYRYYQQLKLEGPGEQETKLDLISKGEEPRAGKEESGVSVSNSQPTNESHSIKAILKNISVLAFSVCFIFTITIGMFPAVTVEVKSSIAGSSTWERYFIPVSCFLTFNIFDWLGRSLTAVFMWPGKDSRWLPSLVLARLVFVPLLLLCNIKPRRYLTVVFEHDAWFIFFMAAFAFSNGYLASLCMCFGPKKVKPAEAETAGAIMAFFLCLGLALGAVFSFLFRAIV
- test_name: Displacement of [3H]NBTI from human erythrocyte membrane at 10 uM
For each entry below, report its Binding activity value.
Answers are plain numbers, in %.

Sample records with Binding activity:
smiles_str | outcome_measure | unit_of_measure | reported_result
O=[N+]([O-])c1ccc(CSc2ncnc3c2ncn3Cc2ccccc2F)cc1 | Binding activity | % | 38
COc1cc(Cn2cnc3c(SCc4ccc([N+](=O)[O-])cc4)ncnc32)cc(OC)c1 | Binding activity | % | 47
O=[N+]([O-])c1ccc(CSc2ncnc3c2ncn3Cc2ccccc2Cl)cc1 | Binding activity | % | 44
O=[N+]([O-])c1ccc(CSc2ncnc3c2ncn3Cc2c(F)cccc2F)cc1 | Binding activity | % | 32

Quick batch: Binding activity for everything below.
1. O=[N+]([O-])c1ccc(CSc2ncnc3c2ncn3Cc2ccc(Cl)c(Cl)c2)cc1
2. O=[N+]([O-])c1ccc(CSc2ncnc3c2ncn3Cc2ccc(OC(F)(F)F)cc2)cc1
3. O=[N+]([O-])c1ccc(CSc2ncnc3c2ncn3Cc2cccc(F)c2F)cc1

Ans:
34
24
32

Lab note: each compound below needs its Binding activity filled in.
1. O=[N+]([O-])c1ccc(CSc2ncnc3c2ncn3Cc2c(Cl)cccc2Cl)cc1
2. O=[N+]([O-])c1ccc(CSc2ncnc3c2ncn3Cc2ccccn2)cc1

Ans:
[6, 42]
